Taken from paper PMC4450297.

Test system: Panc 03.27
procedure-details: Cell panel screen (CellTiter-Glo)
Type: cell-based, human
protocol-conditions: Panc 03.27 (Pancreas), 20 micromolar, 72 hrs
measure: Percent Inhibition (%)
Only the number, expressed in %, is required.

I would be grateful if you could share the reported Percent Inhibition for COc1cc(O)c2c(=O)c3ccc(O)c(O)c3oc2c1CC=C(C)C . 84

Using the record for CC(C)=CCc1c(O)cc2oc3cc(O)c(O)c(CC=C(C)C)c3c(=O)c2c1O , report its Percent Inhibition. 97

Item under review: O=C1CC(c2ccc(O)c(O)c2)Oc2cc(OC3OC(C(=O)O)C(O)C(O)C3O)cc(O)c21 (stereo not shown) . Reported Percent Inhibition? 2

So what does the record say about Percent Inhibition for CC(C)=CCc1c2c(c(O)c3c(=O)c4c(CC=C(C)C)c(O)c(O)cc4oc13)C=CC(C)(C)O2 ? 88
